Where do these numbers come from? They come from ChEMBL document CHEMBL3397016.

Listing: EC50 of selected compounds
- TGT: Peroxisome proliferator-activated receptor gamma (Homo sapiens, UniProt P37231)
- METHOD_NOTES: Activation of human PPARgamma ligand binding domain expressed in COS7 cells by dual luciferase reporter gene assay
- Type: cell-based, COS-7
- MEASUREMENT_SETUP: read-out: EC50
Only the number, expressed in µM, is required.

Examples from the recorded data:
COMPOUND	QUANTITATIVE_RESULT
CCCC/C(=C\c1cc(Oc2ccccc2)ccc1OCc1ccc(C(F)(F)F)cc1)C(=O)O	0.72
CCCC/C(=C\c1cc(OCc2ccc(F)cc2)ccc1OCc1ccc(C(F)(F)F)cc1)C(=O)O	5.17
CCCC/C(=C\c1cc(OCc2ccc(Cl)c(Cl)c2)ccc1OCc1ccc(C(F)(F)F)cc1)C(=O)O	2.11
CCCC/C(=C\c1cc(OCc2ccc(OCCN3CCOCC3)cc2)ccc1OCc1ccc(C(F)(F)F)cc1)C(=O)O	3.77
CCCC/C(=C\c1cc(OCC2CCC(C(F)(F)F)CC2)ccc1OCc1ccc(C(F)(F)F)cc1)C(=O)O (stereo not given)	2.16
CCCC/C(=C\c1cc(OCC(c2ccccc2)c2ccccc2)ccc1OCc1ccc(C(F)(F)F)cc1)C(=O)O	1.26

Give Peroxisome proliferator-activated receptor gamma (Homo sapiens, UniProt P37231) EC50 for `CCCC/C(=C\c1cc(OCc2cccnc2)ccc1OCc1ccc(C(F)(F)F)cc1)C(=O)O`
2.56

Next: `CCCC/C(=C\c1cc(OCc2ccccc2)ccc1OCc1ccc(C(F)(F)F)cc1)C(=O)O`
11.7

Next: `CCCC/C(=C\c1cc(OCc2cc(C(F)(F)F)cc(C(F)(F)F)c2)ccc1OCc1ccc(C(F)(F)F)cc1)C(=O)O`
4.64

Next: `CCCC/C(=C\c1cc(OC/C=C/c2ccccc2)ccc1OCc1ccc(C(F)(F)F)cc1)C(=O)O`
12.9

====

- TGT: Gamma-secretase
- METHOD_NOTES: Inhibition of CHAPSO-solubilized gamma-secretase isolated from human SH-SY5Y P2 cell membranes assessed as reduction in Abeta(1 to 42) peptide generation from recombinant C100Flag substrate by electrochemiluminescence assay
EXPERIMENTAL_READOUT: IC50 (µM)
Only the number, expressed in µM, is required.

Quick check: IC50 of `C[C@@H](C(=O)O)c1ccc(-c2ccccc2)c(F)c1` ?
307

====

- TGT: Prostaglandin G/H synthase 1 (Ovis aries) (UniProt P05979)
- Sequence (whole entry): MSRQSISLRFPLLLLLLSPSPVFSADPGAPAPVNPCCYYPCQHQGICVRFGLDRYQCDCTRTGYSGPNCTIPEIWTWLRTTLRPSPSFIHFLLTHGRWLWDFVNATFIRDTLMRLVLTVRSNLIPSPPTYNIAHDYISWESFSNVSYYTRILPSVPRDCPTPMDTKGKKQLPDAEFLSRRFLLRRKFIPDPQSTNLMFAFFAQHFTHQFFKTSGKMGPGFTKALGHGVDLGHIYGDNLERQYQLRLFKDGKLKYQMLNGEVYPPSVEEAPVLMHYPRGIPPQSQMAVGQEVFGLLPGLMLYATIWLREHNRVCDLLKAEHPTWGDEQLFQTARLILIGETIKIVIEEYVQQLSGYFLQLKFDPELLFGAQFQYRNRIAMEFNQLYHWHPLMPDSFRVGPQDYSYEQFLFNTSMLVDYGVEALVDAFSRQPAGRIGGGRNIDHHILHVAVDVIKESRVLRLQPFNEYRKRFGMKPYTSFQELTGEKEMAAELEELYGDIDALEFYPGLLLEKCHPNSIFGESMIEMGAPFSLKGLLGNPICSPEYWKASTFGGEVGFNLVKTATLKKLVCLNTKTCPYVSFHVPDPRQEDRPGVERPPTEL
- METHOD_NOTES: Inhibition of ovine COX1-mediated 12-HHT formation assessed as remaining activity at 10 uM preincubated for 5 mins before arachidonic acid addition by HPLC analysis
EXPERIMENTAL_READOUT: Activity
Phrase the answer as number then unit, nothing more needed.

MOLECULE	RESULT
CCCC/C(=C\c1cc(OC/C=C/c2ccccc2)ccc1OCc1ccc(C(F)(F)F)cc1)C(=O)O	69.5%

Quick check: Activity of `CCCC/C(=C\c1cc(OCc2ccc(Cl)c(Cl)c2)ccc1OCc1ccc(C(F)(F)F)cc1)C(=O)O` ?
59.4%

Next: `CCCC/C(=C\c1cc(OCc2cc3ccccc3s2)ccc1OCc1ccc(C(F)(F)F)cc1)C(=O)O`
67.4%

Next: CCCC/C(=C\c1cc(OCC2CCC(C(F)(F)F)CC2)ccc1OCc1ccc(C(F)(F)F)cc1)C(=O)O (stereo not drawn)
58%

====

- TGT: Peroxisome proliferator-activated receptor gamma (Homo sapiens)
- Sequence (whole entry): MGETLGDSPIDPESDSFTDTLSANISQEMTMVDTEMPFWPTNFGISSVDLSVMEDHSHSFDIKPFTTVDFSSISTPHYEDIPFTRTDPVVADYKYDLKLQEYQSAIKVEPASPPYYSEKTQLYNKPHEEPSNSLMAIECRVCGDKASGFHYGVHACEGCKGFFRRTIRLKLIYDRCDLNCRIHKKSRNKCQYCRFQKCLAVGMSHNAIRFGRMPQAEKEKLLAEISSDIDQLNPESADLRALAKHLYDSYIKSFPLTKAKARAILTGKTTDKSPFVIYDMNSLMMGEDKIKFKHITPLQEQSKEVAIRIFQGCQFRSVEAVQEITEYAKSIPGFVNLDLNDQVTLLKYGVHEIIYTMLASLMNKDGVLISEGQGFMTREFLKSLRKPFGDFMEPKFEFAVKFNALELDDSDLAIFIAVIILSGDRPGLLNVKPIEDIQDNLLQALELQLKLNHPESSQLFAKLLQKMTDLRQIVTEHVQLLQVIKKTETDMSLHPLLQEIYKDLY
- METHOD_NOTES: Activation of human PPARgamma ligand binding domain expressed in COS7 cells by dual luciferase reporter gene assay relative to 1 uM pioglitazone
- Format: cell-based
- MEASUREMENT_SETUP: COS-7
EXPERIMENTAL_READOUT: max activation

SMILES_STRING	max activation
CCCC/C(=C\c1cc(Oc2ccccc2)ccc1OCc1ccc(C(F)(F)F)cc1)C(=O)O	76%

Quick check: max activation of `CCCC/C(=C\c1cc(OCc2cc(C(F)(F)F)cc(C(F)(F)F)c2)ccc1OCc1ccc(C(F)(F)F)cc1)C(=O)O` ?
103%

Next: `CCCC/C(=C\c1cc(OCc2cccnc2)ccc1OCc1ccc(C(F)(F)F)cc1)C(=O)O`
120%

====

Listing: pIC50 of selected compounds
- TGT: Prostaglandin G/H synthase 1 (Ovis aries)
- Sequence (P05979 whole entry): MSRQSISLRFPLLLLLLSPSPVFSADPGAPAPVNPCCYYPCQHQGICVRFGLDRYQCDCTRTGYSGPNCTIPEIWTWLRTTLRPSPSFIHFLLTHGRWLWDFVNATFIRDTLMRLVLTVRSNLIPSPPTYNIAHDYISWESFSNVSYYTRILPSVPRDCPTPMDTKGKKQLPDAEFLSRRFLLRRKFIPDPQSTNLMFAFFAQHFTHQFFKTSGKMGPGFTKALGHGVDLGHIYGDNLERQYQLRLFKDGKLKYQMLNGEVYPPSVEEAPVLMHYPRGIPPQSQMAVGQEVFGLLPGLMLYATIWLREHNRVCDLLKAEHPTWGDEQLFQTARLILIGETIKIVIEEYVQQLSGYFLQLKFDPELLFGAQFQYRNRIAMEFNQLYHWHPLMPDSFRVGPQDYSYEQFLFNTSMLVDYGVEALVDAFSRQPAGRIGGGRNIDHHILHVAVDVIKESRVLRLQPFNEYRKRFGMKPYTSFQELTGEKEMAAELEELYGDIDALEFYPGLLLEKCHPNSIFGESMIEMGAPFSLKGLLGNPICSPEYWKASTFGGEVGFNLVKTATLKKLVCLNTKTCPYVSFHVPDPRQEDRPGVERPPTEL
pIC50: −log10 of the molar value.

Examples from the recorded data:
COMPOUND	RESULT
CCCC/C(=C\c1cc(OCc2ccccc2)ccc1OCc1ccc(C(F)(F)F)cc1)C(=O)O	< 5.00
CCCC/C(=C\c1cc(OCc2ccc(OCCN3CCOCC3)cc2)ccc1OCc1ccc(C(F)(F)F)cc1)C(=O)O	< 5.00
CCCC/C(=C\c1cc(OCc2ccc(Cl)c(Cl)c2)ccc1OCc1ccc(C(F)(F)F)cc1)C(=O)O	< 5.00

Give Prostaglandin G/H synthase 1 (Ovis aries) pIC50 for CCCC/C(=C\c1cc(OCC2CCC(C(F)(F)F)CC2)ccc1OCc1ccc(C(F)(F)F)cc1)C(=O)O (stereo not given)
< 5.00

Next: `CCCC/C(=C\c1cc(OCc2ccc3nc(C(F)(F)F)cc(OC)c3c2)ccc1OCc1ccc(C(F)(F)F)cc1)C(=O)O`
< 5.00

====

- TGT: Presenilin-1 (Homo sapiens)
- METHOD_NOTES: Inhibition of wild-type human presenilin-1 stably overexpressed in CHO cells co-expressing wild-type human amyloid precursor protein assessed as inhibition of amyloid beta 42 formation after 24 hrs by ELISA
EXPERIMENTAL_READOUT: log10(IC50) (log10 of the value in nM)
Base-10 log of IC50, unit nM.

Examples from the recorded data:
COMPOUND	TGT	QUANTITATIVE_RESULT
CCCC/C(=C\c1cc(OCc2ccc(OCCN3CCOCC3)cc2)ccc1OCc1ccc(C(F)(F)F)cc1)C(=O)O	Presenilin-1 (Homo sapiens)	3.34
CCCC/C(=C\c1cc(OC/C=C/c2ccccc2)ccc1OCc1ccc(C(F)(F)F)cc1)C(=O)O	Presenilin-1 (Homo sapiens)	3.61
CCCCC(Sc1nc(OCCC2CCCCC2)cc(OCCC2CCCCC2)n1)C(=O)O (stereo not drawn)	Presenilin-1 (Homo sapiens)	3.71
CCCC/C(=C\c1cc(OCc2ccc(-c3csc(C)n3)cc2)ccc1OCc1ccc(C(F)(F)F)cc1)C(=O)O	Presenilin-1 (Homo sapiens)	4.31

Quick check: log10(IC50) of `CCCC/C(=C\c1cc(OCc2ccc(C(F)(F)F)cc2)ccc1OCc1ccc(C(F)(F)F)cc1)C(=O)O` ?
3.08

Next: `CCCC/C(=C\c1cc(OCCc2ccc(C(F)(F)F)cc2)ccc1OCc1ccc(C(F)(F)F)cc1)C(=O)O`
3.18

Next: `CCCC/C(=C\c1cc(OCc2csc(-c3ccc(C(F)(F)F)cc3)n2)ccc1OCc1ccc(C(F)(F)F)cc1)C(=O)O`
3.36
